Test: AUC (0 to 8 hrs) in transgenic mouse expressing human CETP/apoB100 at 30 mg/kg, po
Assay type: ADME, organism-based
Parameters: time < 8 hr, dose 30 mg/kg, route oral
Conditions: plasma
Value kind: AUC(0-t) at 8 h (µM·h)
# unit: µM·h | format: bare number

Q) Could you share which AUC(0-t) at 8 h value was measured for `O=C(N[C@@H]1CCC(F)(F)C1)N[C@@](Cc1ccccc1)(c1cc(F)cc(OC(F)(F)C(F)F)c1)c1ccc(Cl)cn1` ?
A) 3.2

----------
Assay: Plasma concentration in transgenic mouse expressing human CETP/apoB100 at 30 mg/kg, po at 8 hrs
Assay type: ADME, organism-based
Set-up: dose 30 mg/kg, route oral
Value kind: concentration at 8 h (nM)
# value in nM; strip the unit string

Q) Which concentration at 8 h value belongs to `O=C(N[C@@H]1CCC(F)(F)C1)N[C@@](Cc1ccccc1)(c1cc(F)cc(OC(F)(F)C(F)F)c1)c1ccc(Cl)cn1` ?
A) 112

----------
Assay: Plasma concentration in transgenic mouse expressing human CETP/apoB100 at 30 mg/kg, po at 4 hrs
Assay type: ADME, organism-based
Parameters: dose 30 mg/kg, route oral
Value kind: concentration at 4 h (nM)
Give the value in nM but do not write nM after it.

Q) Requested read-out: concentration at 4 h. Entry: `O=C(N[C@@H]1CCC(F)(F)C1)N[C@@](Cc1ccccc1)(c1cc(F)cc(OC(F)(F)C(F)F)c1)c1ccc(Cl)cn1`
A) 249

----------
Assay: Plasma concentration in transgenic mouse expressing human CETP/apoB100 at 30 mg/kg, po at 2 hrs
Type: ADME, organism-based
Set-up: dose 30 mg/kg, route oral
Value kind: concentration at 2 h (nM)
Just the number in nM, nothing appended.

Q) What measured concentration at 2 h goes with `O=C(N[C@@H]1CCC(F)(F)C1)N[C@@](Cc1ccccc1)(c1cc(F)cc(OC(F)(F)C(F)F)c1)c1ccc(Cl)cn1` ?
A) 1070
